assay: Chemical stability in aqueous buffer solution at different pH values; assay type: physicochemical; details: pH 7, 37° C., read-out: Chemical stability at pH 7 t1/2 (converted)
measured-quantity: half-life (h)
Give just the numeric value; h need not be written.

Report measured half-life; entry is CCOC(=O)OCn1c([S+]([O-])Cc2cc(OC)ccn2)nc2c(F)cccc21 (stereo not shown)
16
